Target: CYP3A4 (Homo sapiens, UniProt P08684)
Sequence (P08684 whole entry): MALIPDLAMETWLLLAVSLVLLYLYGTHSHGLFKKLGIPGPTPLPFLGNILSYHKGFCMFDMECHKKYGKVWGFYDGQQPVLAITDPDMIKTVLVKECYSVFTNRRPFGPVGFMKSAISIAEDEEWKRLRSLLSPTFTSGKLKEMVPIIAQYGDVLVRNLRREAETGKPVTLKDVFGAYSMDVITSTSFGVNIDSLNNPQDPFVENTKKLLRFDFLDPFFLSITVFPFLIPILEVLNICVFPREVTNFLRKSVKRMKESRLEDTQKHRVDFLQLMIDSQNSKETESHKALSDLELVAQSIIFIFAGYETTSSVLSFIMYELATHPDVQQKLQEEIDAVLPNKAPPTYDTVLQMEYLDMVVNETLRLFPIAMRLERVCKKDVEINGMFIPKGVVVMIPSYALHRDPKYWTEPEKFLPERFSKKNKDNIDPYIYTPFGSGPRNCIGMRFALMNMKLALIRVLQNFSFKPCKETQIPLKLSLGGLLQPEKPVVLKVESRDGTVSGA
Test: Inhibition of CYP3A4 (unknown origin) at 1 uM relative to control
Format: ADME
Value Type: inhibition at 1 µM (%)
Give bare numbers, in %.

GET /values?item= [2H]C([2H])([2H])NC(=O)c1nnc(NC(=O)C2CC2)cc1Nc1cccc(C(=O)Nc2ccc(-c3ncn(C4CC4)n3)cc2)c1OC &system= CYP3A4 (Homo sapiens, UniProt P08684) returns inhibition at 1 µM: 5.25

###

Experiment: C0 in mouse at 1 mg/kg, iv
Format: ADME, organism-based
Conditions: in vivo
Value Type: C0 (ng/mL)
Numbers only, in ng/mL.

Lab note: measured C0 of [2H]C([2H])([2H])NC(=O)c1nnc(NC(=O)C2CC2)cc1Nc1cccc(C(=O)Nc2ccc(-c3ncn(C4CC4)n3)cc2)c1OC was 702

Reference source: ChEMBL document CHEMBL5252617
